Every entry's value here was drawn from paper PMC6919601.

target: DPAP1 (Plasmodium falciparum); assay: primary screen, percent inhibition; higher = more effect of the substance; parameters: species or system P. falciparum D10 trophozoite lysates; single well
Out of some 110,000 compounds screened, about 230 (0.21%) showed an effect of 50% or more. What follows is part of a selection rich in strong results, with near analogues and random picks from the rest.
Quick reference: % Inhibition @ 10 uM of the listed items.
Kindly provide the numeric value in % only, without the unit symbol.

Known results for molecules:
molecule	quantitative_readout
Cc1ccc2nc3c(cc(C(=O)NCC4CCCO4)c(=N)n3CCc3ccccc3)c(=O)n2c1 (centres unmarked)	0.279
Cc1ccccc1N1C(=O)/C(=C\c2c(C)[nH]c3ccccc23)C(=O)NC1=S	4.15
COc1cccc(C(=O)N2CCN(C(=O)CCC3CCCC3)CC2)c1	0.587
Cc1sc2ncn(CC(=O)NC3CCCC(C)C3C)c(=O)c2c1S(=O)(=O)N1CCC(C)CC1 (centres unmarked)	-4.67
Oc1ncnc2sc3c(c12)CCN(Cc1ccccc1)C3	6.74

-- ask Let me know recorded % Inhibition @ 10 uM for Cc1ccc(C)n1-c1nnc(N2CCC(C(=O)NCCc3ccc(Cl)cc3)CC2)s1 , thanks.
-- reply -4.04

-- ask Let me know recorded % Inhibition @ 10 uM for O=c1c2c3c(sc2[nH]c(=S)n1-c1ccc(Cl)cc1)CCC3 , thanks.
-- reply 62.5

-- ask Let me know recorded % Inhibition @ 10 uM for CCOc1ccc(N2CC(C(=O)Nc3ccc(Br)cc3C)CC2=O)cc1 (centres unmarked) , thanks.
-- reply 4.05

-- ask Let me know recorded % Inhibition @ 10 uM for COc1ccc(-n2c(=S)[nH]c3sc4c(c3c2=O)CCC4)cc1 , thanks.
-- reply 84.1

-- ask Let me know recorded % Inhibition @ 10 uM for COc1ccc(-n2c(SCC(=O)N3CCOCC3)nc3sc4c(c3c2=O)CCC4)cc1 , thanks.
-- reply 9.91

-- ask Let me know recorded % Inhibition @ 10 uM for CC1=C(C(=O)OC2CCCC2)C(c2ccsc2)C2=C(O)CC(c3cccs3)CC2=N1 (centres unmarked) , thanks.
-- reply 0.146

-- ask Let me know recorded % Inhibition @ 10 uM for O=c1[nH]c(=S)[nH]c2sc3c(c12)CCN(Cc1ccccc1)C3 , thanks.
-- reply 1.4

-- ask Let me know recorded % Inhibition @ 10 uM for Cc1nnc2c(NCc3ccc4c(c3)OCO4)nc3ccc(C(=O)c4ccccc4)cc3n12 , thanks.
-- reply 79.7

-- ask Let me know recorded % Inhibition @ 10 uM for O=C(N/C(=C\c1ccco1)C(=O)N1CCN(C/C=C/c2ccccc2)CC1)c1ccccc1 , thanks.
-- reply 2.09

-- ask Let me know recorded % Inhibition @ 10 uM for CCOc1ccc(C2CC(=O)N3CN(C)CSC3=C2C#N)cc1OC (centres unmarked) , thanks.
-- reply 47.5

-- ask Let me know recorded % Inhibition @ 10 uM for COc1cc(C2=N/C(=C\c3ccc(C(C)(C)C)cc3)C(=O)O2)cc(OC)c1OC , thanks.
-- reply 84.3

-- ask Let me know recorded % Inhibition @ 10 uM for O=C1/C(=C/c2ccc3nccnc3c2)CCC1C1CCCC1 (centres unmarked) , thanks.
-- reply 66.2

-- ask Let me know recorded % Inhibition @ 10 uM for Cc1nnc2c(Oc3ccc(-c4ccccc4)cc3)nc3ccccc3n12 , thanks.
-- reply -7.23

-- ask Let me know recorded % Inhibition @ 10 uM for Cc1ccc2nc3c(cc(C(=O)NCC4CCCO4)c(=N)n3C3CCCCC3)c(=O)n2c1 (centres unmarked) , thanks.
-- reply 3.6

-- ask Let me know recorded % Inhibition @ 10 uM for CCCCCc1nc(N)c(C#N)c(-c2ccccc2)c1CCCC , thanks.
-- reply -5.9

-- ask Let me know recorded % Inhibition @ 10 uM for O=C1/C(=C/c2ccc3nccnc3c2)CC/C1=C\c1ccc2nccnc2c1 , thanks.
-- reply -0.503

-- ask Let me know recorded % Inhibition @ 10 uM for COc1ccccc1-c1c(C)c(CC(C)C)nc(N)c1C#N , thanks.
-- reply 0.5

-- ask Let me know recorded % Inhibition @ 10 uM for COc1ccccc1NC(=O)/C=C\C(=O)O , thanks.
-- reply 1.63

-- ask Let me know recorded % Inhibition @ 10 uM for Cc1c(CC(C)C)nc(N)c(C#N)c1-c1ccc(F)cc1 , thanks.
-- reply 2.92

----------
molecular target: DPAP1 (Plasmodium falciparum, UniProt Q8IIJ9); experiment: primary screen, percent inhibition; higher = more effect of the substance;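 note: 30 min substrate incubation versus DMSO and 10 µM JCP410 controls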; set-up: species or system P. falciparum D10 trophozoite lysates; single well
Sequence (Q8IIJ9 whole entry, looked up): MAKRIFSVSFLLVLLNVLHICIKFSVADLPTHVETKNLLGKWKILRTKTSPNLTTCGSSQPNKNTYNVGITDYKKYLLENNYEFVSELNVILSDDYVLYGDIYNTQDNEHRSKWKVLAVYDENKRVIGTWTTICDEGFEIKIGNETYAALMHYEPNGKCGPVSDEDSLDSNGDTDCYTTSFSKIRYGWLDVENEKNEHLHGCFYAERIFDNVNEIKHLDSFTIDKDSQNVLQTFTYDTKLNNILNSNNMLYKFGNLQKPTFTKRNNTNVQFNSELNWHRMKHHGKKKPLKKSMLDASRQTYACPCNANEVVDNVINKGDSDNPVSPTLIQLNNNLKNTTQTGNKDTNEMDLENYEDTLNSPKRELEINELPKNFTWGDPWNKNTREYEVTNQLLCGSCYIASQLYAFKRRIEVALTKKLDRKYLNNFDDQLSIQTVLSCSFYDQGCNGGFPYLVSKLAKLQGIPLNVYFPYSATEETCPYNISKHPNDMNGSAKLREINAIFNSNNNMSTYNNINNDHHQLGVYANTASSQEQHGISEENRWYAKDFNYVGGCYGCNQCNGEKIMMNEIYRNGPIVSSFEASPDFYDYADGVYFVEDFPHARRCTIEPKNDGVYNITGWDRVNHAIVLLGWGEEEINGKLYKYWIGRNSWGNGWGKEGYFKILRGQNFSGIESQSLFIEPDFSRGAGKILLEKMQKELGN
About 230 (0.21%) of roughly 110,000 compounds showed an effect of 50% or more. For the sample, strong results were picked, then their nearest neighbours and some compounds at random.
Quick reference: % Inhibition @ 10 uM of the listed items.
Kindly provide the numeric value in % only, without the unit symbol.

molecule	% Inhibition @ 10 uM [%]
N#CC1=C2SCN(Cc3cccnc3)CN2C(=O)CC1c1ccc(F)cc1 (centres unmarked)	55.3
CCOc1ccc(C2CC(=O)N3CN(Cc4cccnc4)CSC3=C2C#N)cc1 (centres unmarked)	56

Continue with the molecule presented below.
-- ask Let me know recorded % Inhibition @ 10 uM for COc1ccc(NC(=O)C2=C(C)NC(=O)NC2c2ccc(Br)cc2)cc1 (centres unmarked) , thanks.
-- reply 57.9

----------
Quick reference: % Inhibition @ 10 uM of the listed items.
molecular target: DPAP1 (Plasmodium falciparum, UniProt Q8IIJ9); assay: primary screen, percent inhibition; higher = more effect of the substance;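 note: 30 min substrate incubation versus DMSO and 10 µM JCP410 controls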; set-up: species or system P. falciparum D10 trophozoite lysates; single well
Hit rate of the full screen: of about 110,000 compounds, about 230 (0.21%) showed an effect of 50% or more. What follows is part of a selection rich in strong results, with near analogues and random picks from the rest.
Kindly provide the numeric value in % only, without the unit symbol.

Known results for compounds:
COc1ccccc1NC(=O)c1cc(OC)c(OC)c(OC)c1 -5.67
CCCCCCSc1nnc2c(n1)[nH]c1ccccc12 -2.35

-- ask Let me know recorded % Inhibition @ 10 uM for Cc1nnc(NC(=O)CSc2nnc(CNC(=O)COc3ccc(Cl)cc3)o2)s1 , thanks.
-- reply -5.27

-- ask Let me know recorded % Inhibition @ 10 uM for COc1ccc(C(=O)NCc2nnc(SCC(=O)NC3CCCCC3)o2)cc1 , thanks.
-- reply 76.6

-- ask Let me know recorded % Inhibition @ 10 uM for Cc1nn(C)cc1CN(C)C(=O)c1cc2nc(-c3ccccc3)cc(C(F)(F)F)n2n1 , thanks.
-- reply 4.59

-- ask Let me know recorded % Inhibition @ 10 uM for NCCSc1nnc2c(n1)[nH]c1ccccc12 , thanks.
-- reply 77.5

----------
biological target: DPAP1 (Plasmodium falciparum); test: primary screen, percent inhibition; higher = more effect of the substance; design: species or system P. falciparum D10 trophozoite lysates; single well
In all, about 110,000 compounds went through this assay and about 230 (0.21%) showed an effect of 50% or more. The sample as a whole holds a higher share of strong results than the screen did.
Lab note: compare % Inhibition @ 10 uM against 40%. Equal or greater, write t. Smaller, write f.

molecule	label_class
COc1ccc(C2CC(=O)N3CN(Cc4ccccc4)CSC3=C2C#N)c(OC)c1 (stereo not drawn)	f
O=c1c2c3c(sc2[nH]c(=S)n1Cc1ccccc1)CCCC3	f

-- ask Test whether the molecule CCn1c2ccc(OC)cc2c2nc3ccccc3nc21 records % Inhibition @ 10 uM of 40% or higher.
-- reply f

-- ask Test whether the molecule CCCCC(=O)Nc1c(-c2ccccc2)nc2ccccn12 records % Inhibition @ 10 uM of 40% or higher.
-- reply f

-- ask Test whether the molecule CSc1nnc2c(n1)[nH]c1ccc(C)cc12 records % Inhibition @ 10 uM of 40% or higher.
-- reply f

-- ask Test whether the molecule CC(NC(=O)c1noc2c1COc1ccccc1-2)c1ccc2c(c1)OCCO2 (stereo not drawn) records % Inhibition @ 10 uM of 40% or higher.
-- reply f

----------
molecular target: DPAP1 (Plasmodium falciparum); assay: primary screen, percent inhibition; read by cleavage of a fluorogenic dipeptide substrate; higher = more effect of the substance; parameters: species or system P. falciparum D10 trophozoite lysates; single well
Screen size: about 110,000 compounds; about 230 (0.21%) showed an effect of 50% or more. For the sample, strong results were picked, then their nearest neighbours and some compounds at random.
attribute_measured: % Inhibition @ 10 uM (%)
Kindly provide the numeric value in % only, without the unit symbol.

molecule	% Inhibition @ 10 uM (%)
O=c1oc2c(cc(NS(=O)(=O)c3ccc(F)cc3)c3ccccc32)s1	-2.54
Cc1ccsc1CCN1CSC2=C(C#N)C(c3ccc(Cl)cc3)CC(=O)N2C1 (stereo not shown)	51.6
COc1ccc(C2CC(=O)N3CN(CCC(C)C)CSC3=C2C#N)cc1OC (stereo not shown)	46.8
CCOC(=O)c1c(C)nc(C)c(C(=O)OCC)c1-c1ccc(OC)cc1	-1.96

-- ask Let me know recorded % Inhibition @ 10 uM for CC(C)(C)c1ccc(C(CC(=O)O)NS(=O)(=O)Cc2ccccc2)cc1 (stereo not shown) , thanks.
-- reply 2.72

-- ask Let me know recorded % Inhibition @ 10 uM for COc1ccc(C(=O)N2CCN(C(=O)c3ccc(OC)cc3)CC2)cc1 , thanks.
-- reply -1.61

-- ask Let me know recorded % Inhibition @ 10 uM for CCCCN(C)CCNC(=O)c1cc2cc3cc(OC)ccc3nc2s1 , thanks.
-- reply 83.9

-- ask Let me know recorded % Inhibition @ 10 uM for COc1ccc(C2=NN(CCc3ccccn3)C(=O)C2)cc1 , thanks.
-- reply -4.06

-- ask Let me know recorded % Inhibition @ 10 uM for COc1cc(CN2CCN(c3ccccc3C)CC2)cc(OC)c1 , thanks.
-- reply 1.9

-- ask Let me know recorded % Inhibition @ 10 uM for COc1ccccc1CNC(=O)c1noc2c1CSc1ccccc1-2 , thanks.
-- reply 62.7

-- ask Let me know recorded % Inhibition @ 10 uM for CC(C)C(=O)NC(c1ccc(Cl)cc1)c1ccc2cccnc2c1O (stereo not shown) , thanks.
-- reply -8.88

-- ask Let me know recorded % Inhibition @ 10 uM for COc1ccc(C(=O)CC(=O)c2ccc(OC)c(OC)c2)c(O)c1 , thanks.
-- reply 4.74

-- ask Let me know recorded % Inhibition @ 10 uM for COc1ccc(C(=O)N2CCN(CC(=O)N3CCOCC3)CC2)cc1 , thanks.
-- reply 6.33

-- ask Let me know recorded % Inhibition @ 10 uM for CCCOc1ccc(CN(C(=O)c2nc(SC)ncc2Cl)C2CCS(=O)(=O)C2)cc1 (stereo not shown) , thanks.
-- reply -4.64

-- ask Let me know recorded % Inhibition @ 10 uM for COc1ccc(CN2CCN(c3cccc(C)c3C)CC2)cc1OC , thanks.
-- reply 9.04

-- ask Let me know recorded % Inhibition @ 10 uM for Cc1ccc2[nH]c(SCC(=O)Nc3ccc(Cl)cc3)nc2c1 , thanks.
-- reply 5.24
